- Tested on: NK-92 (IL-2 2.5 ng/mL)
- ASSAY NAME: percent inhibition of viability; higher = more inhibition;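 further: normalised to DMSO-only wells as negative and benzethonium chloride as positive control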
- RUN PARAMETERS: 72 h; 1000 nM
Consider the following compounds; for each one, report its percent inhibition of viability.
Give bare numbers, in %.

# COMPOUND, percent inhibition of viability / %
measured = [
    ("COc1cc(C(=O)O)ccc1NC(=O)[C@@H]1N[C@@H](CC(C)(C)C)[C@](C#N)(c2ccc(Cl)cc2F)[C@H]1c1cccc(Cl)c1F [RG7388] (max concentration tested 10000 nM)", 8.41),
    ("Clc1ccc(C(c2ccccc2Cl)C(Cl)Cl)cc1 (stereo not drawn) [Mitotane] (max concentration tested 10000 nM)", -14.2),
]

Consider CC[C@H](NC(=O)[C@H](C)NC)C(=O)N1C[C@@H](O)C[C@H]1Cc1c(-c2[nH]c3cc(F)ccc3c2C[C@@H]2C[C@H](O)CN2C(=O)[C@H](CC)NC(=O)[C@H](C)NC)[nH]c2cc(F)ccc12 [Birinapant] (max concentration tested 1000 nM) . Its measured percent inhibition of viability is 31

----------
- System: normal primary NK cells, pool 1 (3 donors) (IL-2 2.5 ng/mL)
- ASSAY NAME: percent inhibition of viability; higher = more inhibition
- RUN PARAMETERS: 72 h; 10 nM
MEASUREMENT KIND: percent inhibition of viability
Dear colleague, please send the value followed by its unit.

# COMPOUND, percent inhibition of viability
rows = [
    ("O=C1CN2Cc3c(ccc(Cl)c3Cl)N=C2N1 [Anagrelide] (max concentration tested 10000 nM)", "12.1%"),
]

// for each compound in input: emit percent inhibition of viability
1. Cc1ccc(-c2cc(C(F)(F)F)nn2-c2ccc(S(N)(=O)=O)cc2)cc1 [Celecoxib] (max concentration tested 10000 nM)
2. CN1CCC(CNc2ccc3ncc(-c4cccc(OC(F)(F)F)c4)n3n2)CC1 [SGI-1776] (max concentration tested 10000 nM)
3. Nc1nc(N)c2nc(-c3cccc(O)c3)c(-c3cccc(O)c3)nc2n1 [TG100-115] (max concentration tested 10000 nM)
4. COc1ccc(C2=N[C@@H](c3ccc(Cl)cc3)[C@@H](c3ccc(Cl)cc3)N2C(=O)N2CCNC(=O)C2)c(OC(C)C)c1 [Nutlin-3] (max concentration tested 10000 nM)
5. c1ccc2c(CCNc3ccc(Nc4ccncc4)cc3)c[nH]c2c1 [Serdemetan] (max concentration tested 10000 nM)

-6.46%
-15.9%
-12.2%
6.43%
-12%

----------
- Tested on: YT (IL-2 2.5 ng/mL)
- ASSAY NAME: percent inhibition of viability; higher = more inhibition
- RUN PARAMETERS: 72 h; 10000 nM
MEASUREMENT KIND: percent inhibition of viability (%)
One number for each entry, in %.

Some compounds with recorded percent inhibition of viability:
# COMPOUND, percent inhibition of viability [%]
records = [
    ("Oc1ncnc2[nH]ncc12 [Allopurinol] (max concentration tested 10000 nM)", 18),
    ("Nc1ncn([C@@H]2O[C@H](CO)[C@@H](O)[C@H]2O)c(=O)n1 [Azacitidine] (max concentration tested 10000 nM)", 28),
    ("Cc1cc(C)c(CNC(=O)c2cc(-c3ccc(CN4CCOCC4)cc3)cc3c2cnn3C2CCCC2)c(=O)[nH]1 [EPZ-5687] (max concentration tested 10000 nM)", -1.43),
]

For each listed entry, give its percent inhibition of viability.
1. CS(=O)(=O)c1ccc(C(=O)Nc2ccc(Cl)c(-c3ccccn3)c2)c(Cl)c1 [Vismodegib] (max concentration tested 10000 nM)
2. Cc1ccc(NC(=O)c2ccc(CN3CCN(C)CC3)cc2)cc1Nc1nc(-c2cccnc2)cs1 [Masitinib] (max concentration tested 10000 nM)
3. CCc1cncnc1N1CCN(Cc2nc3ccc(C(F)(F)F)cc3[nH]2)CC1 (max concentration tested 10000 nM)

[24.6, 97.5, 41.9]
